Target: T1, Human PTGFRN-ECD (extracellular domain; amino-acid 26 to amino-acid Y at 832), His-tag protein (human, UniProt Q9P2B2 26-832)
T1 construct: range 26-832; Expressed in Hek-293 cells, purified on a nickel column; also called recombinant PTGFRN; not shown: His-tag
T1 sequence (looked up): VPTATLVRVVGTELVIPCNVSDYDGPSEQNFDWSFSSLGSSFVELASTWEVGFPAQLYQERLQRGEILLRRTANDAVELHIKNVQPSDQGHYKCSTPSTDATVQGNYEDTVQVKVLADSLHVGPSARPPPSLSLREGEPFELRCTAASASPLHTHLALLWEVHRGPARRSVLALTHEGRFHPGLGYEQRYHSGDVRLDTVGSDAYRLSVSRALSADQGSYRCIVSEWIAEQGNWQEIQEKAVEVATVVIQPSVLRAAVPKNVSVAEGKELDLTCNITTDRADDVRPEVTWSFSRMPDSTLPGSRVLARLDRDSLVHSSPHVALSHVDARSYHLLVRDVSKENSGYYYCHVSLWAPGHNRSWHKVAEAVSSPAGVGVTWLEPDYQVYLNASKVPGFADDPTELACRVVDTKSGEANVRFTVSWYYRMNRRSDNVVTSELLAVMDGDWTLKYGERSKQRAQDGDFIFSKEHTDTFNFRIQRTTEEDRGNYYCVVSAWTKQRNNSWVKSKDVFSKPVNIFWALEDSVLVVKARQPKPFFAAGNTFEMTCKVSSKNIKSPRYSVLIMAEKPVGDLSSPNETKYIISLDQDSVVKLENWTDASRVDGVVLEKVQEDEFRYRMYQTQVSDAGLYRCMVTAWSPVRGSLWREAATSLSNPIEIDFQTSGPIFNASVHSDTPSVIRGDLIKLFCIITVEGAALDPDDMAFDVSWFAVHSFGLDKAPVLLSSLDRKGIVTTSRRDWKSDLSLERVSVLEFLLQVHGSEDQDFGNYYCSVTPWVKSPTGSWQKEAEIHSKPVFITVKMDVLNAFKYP
Test: BLI, Octet Red96, mAb on AMC sensor, PTGFRN-ECD 100 nM as analyte
VALUE KIND: Response

Look over these answered cases.
[[record]]
binder = "33B7 (antibody, V domains shown, Murine hybridoma monoclonal IgG (ATCC PTA-124281); also called AG02; AGO2) VH: DVQLQESGPGLVKPSQSLSLTCSVTGCSITSGYYWNWIRQFPGNKLEWMGYISHDGNNNYSPSLKNRISITRDTSKNQFFLKLNSVTTEDTATYYCARGFYYYGYFGYWGQGTTLTVSS VL: DIVMSQSPSSLAVSVGEKVTMSCKSSQSLLYSTNQKNYLAWYQQKPGQSPKPLIYWASTRESGVPDRFTGSGSGTDFTLTISSVKAEDLAVYYCQQYYSYRTFGGGTKLEIKR"
value_kind = "Response"
val = 0.245

[[record]]
binder = "6F6 (antibody, V domains shown, Mouse hybridoma mAb) VH: QVQLQQSGAELVKPGASVKVSCKASGYTFTTYWMHWVKQRPGQGLEWIGRIHPSDSDTNYNQKFKGKATLTLDKSSSTAYMQLSSLTSEDSAVYYCAMSLYYTMDYWGQGTSVTVSS VL: DIQMTQSPSSLSASLGGKVTITCKASQDIKKYIAWYQHKPGKGPRLLIHYTSTLQPGIPSRFSGSGSGRDYSFSISNLEPEDIATYYCLQYDNLLYTFGGGTKLEIK"
value_kind = "Response"
val = 0.335


I have 3 binders here; please give me Response for each one.
1. 1E2 (antibody, V domains shown, Mouse hybridoma mAb) VH: DVQLQESGPGLVKPSQSLSLTCSVTDYSITSGYYWNWIRQFPGNKLEWMGYISYDGSNNYNPSLKNRLSITRDTSKNQFFLKLNSVTPEDTATYYCARGWDYCFDYWGQGATLTVSS VL: DIQMTQTTSSLSASLGDRVTISCSASQGISNYLNWYQQKPDGTVKLLIYYTSGLHSGVPSRFSGSGSGTDYSLTISNLEPEDIATYYCQQYSQLPWTFGGGTKLEIK
2. 10D9 (antibody, V domains shown, Mouse hybridoma mAb) VH: DVQLQESGPGLVKPSQSLSLTCSVTGCSITSGYDWNWIRQFPGNKLEWMGYINYDGNSNYIPSLKNRVSITRDTSKNQFFLKLNSVTTEDTATYYCARSDGYYWYFDVWGTGTTVTVSS VL: DIKMTQSPSSMYASLGERVTITCKASQDIKSYLSWYQQKPWKSPKTLIYYATSLADGVPSRFSASGSGQDYSLTISSLESDDTATYYCLQHAERPLTFGAGTKLELK
3. 9A9 (antibody, V domains shown, Mouse hybridoma mAb) VH: QVQLQQSGPELVKPGASVKLSCKASGYTFTTYDINWVKQRPGQGLEWIGWLYPRDGNTNYNEKFKGKASLTVDTSSSTAYMELHSLTSEDSAVYFCARDYYGSTYGYFDYWGQGTTLTVSS VL: DIQMTQSPASLSASVGGTVTITCRASEKIYSYLAWYQQKQGKSPQLLVYDANTLAQGVPSRFSGSGSGTQFSLKINSLQPEDFGSYYCQHHYVTPLTFGAGTKLALK

// result
[0.41, 0.342, 0.319]

I have 2 binders here; please give me Response for each one.
1. 3E10 (antibody, V domains shown) VH: EVHLVESGGDLVKPGGSLKLSCAASGFTFSSYGMSWVRQTPDKRLEWVASISSGGSHTYYPDRVKGRFTISRDNAKNTLYLQMSSLKSEDTAMYYCARHPSYYGSSLYCFDYWGQGTTLTVSS VL: DIQMTQTTSSLSASLGDRVTISCRASQDISNYLNWYQQKPDGTVKLLIYYTSRLHSGVPSRFSGSGSGTDFSLTISNLEQEDVATYFCQQGSTLPWTFGGGTKLEIK
2. 2B12 (antibody, V domains shown, Mouse hybridoma mAb) VH: QVQLQQPGAELVKPGASVKMSCKASGYTFTSYWITWVKQGPGQGLEWIGDIYPGSGNTNYNEKFKSKATLTVDTSSSTAYMQLSSLTSEDSAVYYCARFFILTSYYFDYWGQGTTLTVSS VL: GIVMTQSQKFMSTTVGDRVSITCKASQNVGTAVAWFQQKPGQSPKLLIYLASNRYTGVPDRFTGSGSGTDFTLTISNMQSEDLADYFCQQYSNYPLTFGAGTKLELK

// result
[0.472, 0.272]
